# particulars: in ethanol, 308.15 K
endpoint name: solubility (mole fraction)
No unit in the answer, only the number.

Query: Fill in the blank: the reported solubility (mole fraction) of NC(N)=S is ____.
Result: 0.0315

====

# particulars: in n-propanol, 313.15 K
endpoint name: solubility (mole fraction)
No unit in the answer, only the number.

Query: Fill in the blank: the reported solubility (mole fraction) of NC(N)=S is ____.
Result: 0.0348
